Entry source: patent US11826466B2

- test.details: Solubility of Bendamustine Hydrochloride in DMA-Water Mixture
- Format: physicochemical
- test.settings: organic solvent or mixture, thermodynamic from solid; DMA:Water 95:5; 5° C.
- Method: To 10 ml of DMA-water mixture, excess (˜2-3 g) of Bendamustine Hydrochloride hydrate was added and the mixture was stirred for 24 hr while keeping in a constant temperature bath. After 24 hr, the mixture was centrifuged to remove the undissolved solid and the supernatant was filtered through a 0.2 micron filter. The clear filtrate was assayed.
Structures can show the parent of a compound that is named as a salt.
parameter: solubility at 24 h (mg/mL)
Numbers only, in mg/mL.

Lookup: Requested field: solubility at 24 h. Item: Cn1c(CCCC(=O)O)nc2cc(N(CCCl)CCCl)ccc21 [Bendamustine Hydrochloride hydrate]
Found: 114
